# target: GABAB receptors (Rattus norvegicus, UniProt Q9Z0U4)
# Construct: Slices (0.25 x 0.25 x 2.0 mm) of rat cerebral cortex; from tissue; host or cells: rat cerebral cortex slices
# Sequence (Q9Z0U4 20-960): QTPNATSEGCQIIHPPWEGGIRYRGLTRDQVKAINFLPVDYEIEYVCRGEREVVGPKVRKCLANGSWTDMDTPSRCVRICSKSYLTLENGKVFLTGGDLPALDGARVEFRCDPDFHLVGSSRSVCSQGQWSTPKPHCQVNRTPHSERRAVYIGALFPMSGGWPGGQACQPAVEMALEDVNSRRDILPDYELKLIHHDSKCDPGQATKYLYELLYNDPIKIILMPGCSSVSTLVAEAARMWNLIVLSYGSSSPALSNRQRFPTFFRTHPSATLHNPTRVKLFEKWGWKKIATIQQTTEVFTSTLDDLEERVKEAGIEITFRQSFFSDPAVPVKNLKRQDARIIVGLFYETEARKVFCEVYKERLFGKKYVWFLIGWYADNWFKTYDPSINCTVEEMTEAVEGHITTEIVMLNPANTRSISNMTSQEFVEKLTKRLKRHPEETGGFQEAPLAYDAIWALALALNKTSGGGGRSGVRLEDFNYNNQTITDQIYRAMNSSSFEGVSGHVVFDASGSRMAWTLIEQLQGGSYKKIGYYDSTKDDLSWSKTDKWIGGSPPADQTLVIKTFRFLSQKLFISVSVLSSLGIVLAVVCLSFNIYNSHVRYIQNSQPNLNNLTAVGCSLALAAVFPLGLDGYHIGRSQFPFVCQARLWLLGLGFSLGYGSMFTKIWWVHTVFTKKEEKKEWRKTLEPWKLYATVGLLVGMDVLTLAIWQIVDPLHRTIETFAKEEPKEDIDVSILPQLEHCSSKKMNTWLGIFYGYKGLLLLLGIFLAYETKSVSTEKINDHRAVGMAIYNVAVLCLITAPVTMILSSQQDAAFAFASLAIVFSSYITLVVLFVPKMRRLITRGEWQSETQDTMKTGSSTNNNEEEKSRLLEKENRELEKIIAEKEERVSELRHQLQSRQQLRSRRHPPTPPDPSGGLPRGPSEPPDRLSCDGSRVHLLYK
# Sequence (O88871 41-940 partner): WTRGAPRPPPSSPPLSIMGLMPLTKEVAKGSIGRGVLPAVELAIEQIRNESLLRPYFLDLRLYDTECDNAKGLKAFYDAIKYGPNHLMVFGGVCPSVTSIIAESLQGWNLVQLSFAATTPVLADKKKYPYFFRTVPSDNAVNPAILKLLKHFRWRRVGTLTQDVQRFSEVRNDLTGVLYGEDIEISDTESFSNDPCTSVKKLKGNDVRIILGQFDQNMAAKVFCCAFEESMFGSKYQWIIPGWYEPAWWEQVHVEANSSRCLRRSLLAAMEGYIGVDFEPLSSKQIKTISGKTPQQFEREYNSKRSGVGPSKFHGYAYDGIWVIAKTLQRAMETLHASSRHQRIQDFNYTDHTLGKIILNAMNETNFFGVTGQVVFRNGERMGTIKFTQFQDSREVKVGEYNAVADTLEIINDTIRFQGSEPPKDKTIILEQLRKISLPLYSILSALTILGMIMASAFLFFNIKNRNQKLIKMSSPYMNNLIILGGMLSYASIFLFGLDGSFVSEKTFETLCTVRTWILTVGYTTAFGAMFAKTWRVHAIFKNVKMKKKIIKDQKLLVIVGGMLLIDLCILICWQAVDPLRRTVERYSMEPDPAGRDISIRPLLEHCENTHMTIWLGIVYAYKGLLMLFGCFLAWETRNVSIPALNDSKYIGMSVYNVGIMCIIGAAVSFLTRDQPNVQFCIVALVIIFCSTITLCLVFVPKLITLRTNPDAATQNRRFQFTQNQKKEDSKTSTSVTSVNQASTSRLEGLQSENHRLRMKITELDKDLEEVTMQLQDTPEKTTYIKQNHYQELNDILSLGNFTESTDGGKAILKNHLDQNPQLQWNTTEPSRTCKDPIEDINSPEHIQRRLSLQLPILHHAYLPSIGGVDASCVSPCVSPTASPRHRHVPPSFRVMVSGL
# assayDetails: Procedure 1: inhibition of potassium-evoked [14C]-noradrenaline release from rat cerebral cortex slices
# Type: cell-based
# conditionsUsed: 10^-5M; potassium-evoked noradrenaline release, rat cortex slices; failure to inhibit indicates no GABAB agonist activity
propertyLabel: inhibition at 10 µM

Previously resolved entries follow.
- compound: "COc1ccc(CN(CCCC(N)=O)Cc2ccc(OC)cc2)cc1"
  recordedMeasurement: "0%"
- compound: "Cc1ccc(CN(CCCC(=O)O)Cc2ccc(C)cc2)cc1"
  recordedMeasurement: "10%"

Go through the items and report each one's inhibition at 10 µM.
1. O=C(O)CCCN(Cc1ccc(Cl)c(Cl)c1)Cc1ccc(Cl)c(Cl)c1
2. CN(CCCC(N)=O)Cc1ccc(Cl)cc1
3. O=C(O)CCCN(Cc1ccccc1)Cc1ccccc1
4. NC(=O)CCCN(Cc1ccccc1)Cc1ccccc1 [Example 4, 4-(N,N-Dibenzylamino)butyramide]
5. O=C(O)CCCN(Cc1ccc(Cl)cc1)Cc1ccc(Cl)cc1
6. NC(=O)CCCN(Cc1ccc(Cl)cc1)Cc1ccc(Cl)cc1

Response:
["0%", "0%", "20%", "> 20%", "0%", "0%"]

---

# System: GABA autoreceptor
# assayDetails: Procedure 1: inhibition of potassium-evoked [3H]-GABA release from rat cerebral cortex slices
# Type: cell-based
# conditionsUsed: inhibition of 25 mM potassium-evoked [3H]-GABA release, rat cortex slices in vitro
Assignment: determine reported GABA autoreceptor pD2 values for the given compounds.
Numbers only.

- compound: "CN(CCCC(N)=O)Cc1ccc(Cl)cc1"
  recordedMeasurement: 7.5

Kindly give each listed record's GABA autoreceptor pD2 values.
1. COc1ccc(CN(CCCC(N)=O)Cc2ccc(OC)cc2)cc1
2. O=C(O)CCCN(Cc1ccc(Cl)cc1)Cc1ccc(Cl)cc1

Response:
1: 6.0; 2: 7.0

I would be grateful if you could provide GABA autoreceptor pD2 values for each of the following entries.
1. O=C(O)CCCN(Cc1ccccc1)Cc1ccccc1
2. NC(=O)CCCN(Cc1ccccc1)Cc1ccccc1 [Example 4, 4-(N,N-Dibenzylamino)butyramide]

Response:
7.1
7.0

Please report GABA autoreceptor pD2 values for every entry that follows.
1. CCCC/N=C(/c1cc(Cl)ccc1O)c1ccccc1Cl [fengabine, reference compound]
2. NC(=O)CCCN(Cc1ccc(Cl)cc1)Cc1ccc(Cl)cc1
3. Cc1ccc(CN(CCCC(=O)O)Cc2ccc(C)cc2)cc1
4. O=C(O)CCCN(Cc1ccc(Cl)c(Cl)c1)Cc1ccc(Cl)c(Cl)c1

Response:
[8.0, 6.6, 7.4, 7.5]
